Tested on: Danio rerio Tg(wt1b:EGFP) embryo, pronephros
Assay text: glomerular width (mean of left and right), fold change vs DMSO control; higher = wider glomerulus
Experimental setup: 25 µM; exposure: 24-48 hpf
Structures can show the parent of a compound that is named as a salt.
For each of the compounds below, state its glomerular width.

Reference set, count: 3
glomerular width in this record for C#C[C@]1(O)CC[C@H]2[C@@H]3CCc4cc(OC)ccc4[C@H]3CC[C@@]21C : 1.04

glomerular width in this record for OC(c1cc(C(F)(F)F)nc2c(C(F)(F)F)cccc12)C1CCCCN1 (centres undefined) [Mefloquine hydrochloride] : 1.01

glomerular width in this record for COc1c(O[C@@H]2O[C@H](CO)[C@@H](O)[C@H](O)[C@H]2O)cc2c(c1OC)-c1ccc(SC)c(=O)cc1[C@@H](NC(C)=O)CC2 [Thiocolchicoside] : 0.909

Further cases:
glomerular width in this record for COc1ccc2c(c1)c(CC(=O)O)c(C)n2C(=O)c1ccc(Cl)cc1 : 0.781
